- experimental-system: recombinant human sEH (HsEH) (Homo sapiens)
- Sequence (P34913 whole entry): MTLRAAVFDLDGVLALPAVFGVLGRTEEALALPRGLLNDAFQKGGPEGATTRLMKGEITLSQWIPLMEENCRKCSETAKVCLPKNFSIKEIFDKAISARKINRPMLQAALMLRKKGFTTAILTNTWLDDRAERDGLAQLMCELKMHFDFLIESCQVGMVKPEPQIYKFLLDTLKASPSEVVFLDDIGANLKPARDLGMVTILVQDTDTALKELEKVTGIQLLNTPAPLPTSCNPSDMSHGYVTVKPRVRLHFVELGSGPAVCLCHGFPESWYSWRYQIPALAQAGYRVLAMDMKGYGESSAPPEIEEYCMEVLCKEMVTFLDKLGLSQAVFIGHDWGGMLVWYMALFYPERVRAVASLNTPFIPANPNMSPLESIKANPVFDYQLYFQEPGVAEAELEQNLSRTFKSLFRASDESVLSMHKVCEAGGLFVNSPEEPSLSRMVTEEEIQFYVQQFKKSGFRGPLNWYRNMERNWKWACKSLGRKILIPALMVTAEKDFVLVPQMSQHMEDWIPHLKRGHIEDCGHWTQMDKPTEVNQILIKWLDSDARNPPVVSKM
- assay-overview: biochemical
quantity-name: IC50 (nM)

• CCC(=O)N1CCC(CC(=O)N2CCCN(Cc3ccc(NC(=O)N[C@@]45C[C@@H]6C[C@@](C)(C[C@@](C)(C6)C4)C5)c(F)c3)CC2)CC1 = 0.35
• C[C@]12C[C@@H]3C[C@](C)(C1)C[C@@](NC(=O)Nc1ccc(C(=O)N4CCC(C(=O)N5CCN(CCO)CC5)CC4)cc1F)(C3)C2 = 12.5
• C[C@]12C[C@@H]3C[C@](C)(C1)C[C@@](NC(=O)Nc1ccc(C(=O)N4CCCC(C(=O)O)C4)cc1F)(C3)C2 (stereo partly drawn) = 4
